# Substrate: CCCC(=O)Oc1ccc([N+](=O)[O-])cc1
# experimental.protocol: purified protein
# Type: biochemical, Falsihalocynthiibacter arcticus
# stated.conditions: free enzyme, 20 mM Tris-HCl pH 8.0, 25 °C (standard assay)
quantity.measured: kcat/Km (M⁻¹ s⁻¹)

>>> number("HaSGNH1 (Falsihalocynthiibacter arcticus; M86R) (protein, ORF cloned from genomic DNA (primer starts ATG AGT GCT CGC GTT: MSARV), pET-21a, N-terminal His6 tag, E. coli BL21(DE3)) MSARVQAETVVIAALGDSLTQGYGLPQEDGLVAQLQGWLDENNHDIRLINAGVSGDTTAGGRSRIEWTLTPDVDAVIVELGGNDMRRGIAPSDSRKNLTEILEILQSRDLPVLLVGLPSANNFGPEFKAEFDDMFPALSTDFETLLYPDFFTSFRTKLNDTSALTTYMQDDAIHPNAKGVAAIVEDFGPLVVELAQQTQE")
4200
